List of Kd values.
Target: human FcRn complex (FCGRT and beta-2 microglobulin), recombinant, purified (human) (UniProt P55899)
Sequence (P55899 24-297 limits assumed, chain 1 of 2): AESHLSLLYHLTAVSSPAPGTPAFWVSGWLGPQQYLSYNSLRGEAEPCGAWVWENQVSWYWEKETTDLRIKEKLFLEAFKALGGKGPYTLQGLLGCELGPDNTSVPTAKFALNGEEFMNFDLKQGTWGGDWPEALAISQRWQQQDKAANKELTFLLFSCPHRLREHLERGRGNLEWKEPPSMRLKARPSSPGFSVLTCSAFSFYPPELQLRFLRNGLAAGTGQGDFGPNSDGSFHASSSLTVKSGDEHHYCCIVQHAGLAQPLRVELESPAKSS
Sequence (P61769 21-119 limits assumed, chain 2 of 2, further chain): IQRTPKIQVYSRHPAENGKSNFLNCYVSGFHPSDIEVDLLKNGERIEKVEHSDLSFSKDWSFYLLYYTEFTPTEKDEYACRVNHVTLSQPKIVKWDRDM
Assay: SPR, anti-human Fab capture, pH 7.4, steady state
Give the quantity in nM, number only.

Record excerpt, results attached:
| binder | units.symbol | Kd |
| --- | --- | --- |
| anti-BACE1 hIgG4 antibody, Fc modification T94 (M252Y/N286E/N434Y) (antibody, part only; not given: Anti-BACE1 variable domains, not shown: another chain or arm of the molecule) Fc: PAPEFLGGPSVFLFPPKPKDTLYISRTPEVTCVVVDVSQEDPEVQFNWYVDGVEVHEAKTKPREEQFNSTYRVVSVLTVLHQDWLNGKEYKCKVSNKGLPSSIEKTISKAKGQPREPQVYTLPPSQEEMTKNQVSLTCLVKGFYPSDIAVEWESNGQPENNYKTTPPVLDSDGSFFLYSRLTVDKSRWQEGNVFSCSVMHEALHYHYTQKSLSLSLGK | nM | 305 |
| anti-Abeta hIgG4 antibody, Fc modification D1 (M252Y/N434Y) (antibody, part only; not given: Anti-Abeta variable domains, not shown: another chain or arm of the molecule) Fc: PAPEFLGGPSVFLFPPKPKDTLYISRTPEVTCVVVDVSQEDPEVQFNWYVDGVEVHNAKTKPREEQFNSTYRVVSVLTVLHQDWLNGKEYKCKVSNKGLPSSIEKTISKAKGQPREPQVYTLPPSQEEMTKNQVSLTCLVKGFYPSDIAVEWESNGQPENNYKTTPPVLDSDGSFFLYSRLTVDKSRWQEGNVFSCSVMHEALHYHYTQKSLSLSLGK | nM | 1020 |
| anti-BACE1 hIgG4 antibody, Fc modification T3 (M252Y/Q311I/N434Y) (antibody, part only; not given: Anti-BACE1 variable domains, not shown: another chain or arm of the molecule) Fc: PAPEFLGGPSVFLFPPKPKDTLYISRTPEVTCVVVDVSQEDPEVQFNWYVDGVEVHNAKTKPREEQFNSTYRVVSVLTVLHIDWLNGKEYKCKVSNKGLPSSIEKTISKAKGQPREPQVYTLPPSQEEMTKNQVSLTCLVKGFYPSDIAVEWESNGQPENNYKTTPPVLDSDGSFFLYSRLTVDKSRWQEGNVFSCSVMHEALHYHYTQKSLSLSLGK | nM | 263 |
| anti-Abeta hIgG4 antibody, Fc modification Q95 (M252Y/T307Q/Q311A/N434Y) (antibody, part only; not given: anti-Abeta variable domains, not shown: another chain or arm of the molecule) Fc: PAPEFLGGPSVFLFPPKPKDTLYISRTPEVTCVVVDVSQEDPEVQFNWYVDGVEVHNAKTKPREEQFNSTYRVVSVLQVLHADWLNGKEYKCKVSNKGLPSSIEKTISKAKGQPREPQVYTLPPSQEEMTKNQVSLTCLVKGFYPSDIAVEWESNGQPENNYKTTPPVLDSDGSFFLYSRLTVDKSRWQEGNVFSCSVMHEALHYHYTQKSLSLSLGK | nM | 284 |

Any idea what its Kd is? The binder is anti-BACE1 hIgG4 antibody, Fc modification Q95 (M252Y/T307Q/Q311A/N434Y) (antibody, part only; not given: Anti-BACE1 variable domains, not shown: another chain or arm of the molecule) Fc: PAPEFLGGPSVFLFPPKPKDTLYISRTPEVTCVVVDVSQEDPEVQFNWYVDGVEVHNAKTKPREEQFNSTYRVVSVLQVLHADWLNGKEYKCKVSNKGLPSSIEKTISKAKGQPREPQVYTLPPSQEEMTKNQVSLTCLVKGFYPSDIAVEWESNGQPENNYKTTPPVLDSDGSFFLYSRLTVDKSRWQEGNVFSCSVMHEALHYHYTQKSLSLSLGK
202

Any idea what its Kd is? The binder is anti-Abeta hIgG4 antibody, Fc modification T94 (M252Y/N286E/N434Y) (antibody, part only; not given: anti-Abeta variable domains, not shown: another chain or arm of the molecule) Fc: PAPEFLGGPSVFLFPPKPKDTLYISRTPEVTCVVVDVSQEDPEVQFNWYVDGVEVHEAKTKPREEQFNSTYRVVSVLTVLHQDWLNGKEYKCKVSNKGLPSSIEKTISKAKGQPREPQVYTLPPSQEEMTKNQVSLTCLVKGFYPSDIAVEWESNGQPENNYKTTPPVLDSDGSFFLYSRLTVDKSRWQEGNVFSCSVMHEALHYHYTQKSLSLSLGK
406

Any idea what its Kd is? The binder is anti-Abeta hIgG4 antibody, Fc modification Q4 (M252Y/Q311I/M428L/N434Y) (antibody, part only; not given: Anti-Abeta variable domains, not shown: another chain or arm of the molecule) Fc: PAPEFLGGPSVFLFPPKPKDTLYISRTPEVTCVVVDVSQEDPEVQFNWYVDGVEVHNAKTKPREEQFNSTYRVVSVLTVLHIDWLNGKEYKCKVSNKGLPSSIEKTISKAKGQPREPQVYTLPPSQEEMTKNQVSLTCLVKGFYPSDIAVEWESNGQPENNYKTTPPVLDSDGSFFLYSRLTVDKSRWQEGNVFSCSVLHEALHYHYTQKSLSLSLGK
486

Any idea what its Kd is? The binder is anti-Abeta hIgG4 antibody, Fc modification Q7 (M252Y/Q311A/N434Y/Y436I) (antibody, part only; not given: anti-Abeta variable domains, not shown: another chain or arm of the molecule) Fc: PAPEFLGGPSVFLFPPKPKDTLYISRTPEVTCVVVDVSQEDPEVQFNWYVDGVEVHNAKTKPREEQFNSTYRVVSVLTVLHADWLNGKEYKCKVSNKGLPSSIEKTISKAKGQPREPQVYTLPPSQEEMTKNQVSLTCLVKGFYPSDIAVEWESNGQPENNYKTTPPVLDSDGSFFLYSRLTVDKSRWQEGNVFSCSVMHEALHYHITQKSLSLSLGK
273
